Assay: Hemolytic activity in male Sprague-Dawley rat erythrocytes assessed as concentration required for 50% hemolysis incubated for 1 hr by absorbance based method
Format: toxicity, cell-based, Erythrocyte
Non-standard residues stand in square brackets, D forms with d. Residues, ends and D or L forms follow the SMILES beside them. *: point of attachment. X3 = NC(=O)[C@H](Cc1c[nH]cn1)NC(=O)CNC(=O)[C@@H](N)CN(CCc1c[nH]c2ccccc12)*; Gly(N(CH2)2(3-indolyl)) = O=C(O)CNCCc1c[nH]c2ccccc12; Nspe = C[C@H](NCC(=O)O)c1ccccc1; Nphe = O=C(O)CNCc1ccccc1; Nlys = NCCCCNCC(=O)O
value_type: HC50 at 1 h

Report HC50 at 1 h for C[C@@H](c1ccccc1)N(CC(=O)N(CCCCN)CC(=O)N(CCc1c[nH]c2ccccc12)CC(=O)N(CCc1c[nH]c2ccccc12)CC(N)=O)C(=O)CN(CCCCN)C(=O)CN(CCCCN)C(=O)CN(C(=O)CN(C(=O)CN(CCCCN)C(=O)CN(C(=O)CN(C(=O)CNCCCCN)[C@@H](C)c1ccccc1)[C@@H](C)c1ccccc1)[C@@H](C)c1ccccc1)[C@@H](C)c1ccccc1 (H-[Nlys][Nspe][Nspe][Nlys][Nspe][Nspe][Nlys][Nlys][Nspe][Nlys][Gly(N(CH2)2(3-indolyl))][Gly(N(CH2)2(3-indolyl))]-NH2) please.
> 100 µM

Look up HC50 at 1 h: C[C@@H](c1ccccc1)N(CC(=O)N(CCCCN)CC(=O)N(CC(=O)N(CC(=O)N(CCCCN)CC(=O)N(CC(=O)N(CC(N)=O)Cc1ccccc1)Cc1ccccc1)[C@@H](C)c1ccccc1)[C@@H](C)c1ccccc1)C(=O)CN(C(=O)CN(CCCCN)C(=O)CN(Cc1ccccc1)C(=O)CN(Cc1ccccc1)C(=O)CN(CCCCN)C(=O)[C@H](Cc1c[nH]cn1)NC(=O)CNC(=O)CN)[C@@H](C)c1ccccc1 (H-GGH[Nlys][Nphe][Nphe][Nlys][Nspe][Nspe][Nlys][Nspe][Nspe][Nlys][Nphe][Nphe]-NH2)
> 100 µM

Recorded HC50 at 1 h of C[C@@H](c1ccccc1)N(CC(N)=O)C(=O)CN(CCCCN)C(=O)CN(Cc1ccccc1)C(=O)CN(Cc1ccccc1)C(=O)CN(CCCCN)C(=O)CN(C(=O)CN(C(=O)CN(CCCCN)C(=O)CN(Cc1ccccc1)C(=O)CN(Cc1ccccc1)C(=O)CN(CCCCN)C(=O)CNC(=O)[C@H](Cc1c[nH]cn1)NC(=O)CNC(=O)CN)[C@@H](C)c1ccccc1)[C@@H](C)c1ccccc1 (H-GGHG[Nlys][Nphe][Nphe][Nlys][Nspe][Nspe][Nlys][Nphe][Nphe][Nlys][Nspe]-NH2) , please.
> 100 µM

Given the entry C[C@@H](c1ccccc1)N(CC(=O)N(CCCCN)CC(=O)N(CC(=O)N(CC(=O)N(CCCCN)CC(=O)N(CC(=O)N(CC(=O)N(CCCCN)CC(=O)N(CCc1c[nH]c2ccccc12)CC(=O)N(CCc1c[nH]c2ccccc12)C[C@H](N)C(=O)NCC(=O)N[C@@H](Cc1c[nH]cn1)C(N)=O)[C@@H](C)c1ccccc1)[C@@H](C)c1ccccc1)[C@@H](C)c1ccccc1)[C@@H](C)c1ccccc1)C(=O)CN(C(=O)CNCCCCN)[C@@H](C)c1ccccc1 (H-[Nlys][Nspe][Nspe][Nlys][Nspe][Nspe][Nlys][Nspe][Nspe][Nlys][Gly(N(CH2)2(3-indolyl))]-X3) , report its measured HC50 at 1 h.
> 100 µM

What value of measured HC50 at 1 h is listed for C[C@@H](c1ccccc1)N(CC(=O)N(CCCCN)CC(=O)N(CC(=O)N(CC(=O)N(CCCCN)CC(=O)N(CC(=O)N(CC(N)=O)Cc1ccccc1)Cc1ccccc1)[C@@H](C)c1ccccc1)[C@@H](C)c1ccccc1)C(=O)CN(C(=O)CN(CCCCN)C(=O)CN(Cc1ccccc1)C(=O)CN(Cc1ccccc1)C(=O)CNCCCCN)[C@@H](C)c1ccccc1 (H-[Nlys][Nphe][Nphe][Nlys][Nspe][Nspe][Nlys][Nspe][Nspe][Nlys][Nphe][Nphe]-NH2) ?
83 µM
